We begin with Ki values for Rho-associated protein kinase 1 (Homo sapiens, UniProt Q13464), as collected from the published literature.

# COMPOUND, Ki
measured = [
    ("Cc1c[nH]c2nccc(Oc3ccc(CC4CNCN(CCc5ccncc5)C4=O)cc3F)c12 (stereo not drawn)", "> 30 nM"),
]

[in] For the compound CN(C)c1cccc(-c2c[nH]c3ncc(-c4ccccc4)cc23)n1 , what Ki is on record?
[out] < 500 nM

[in] Record request: Ki value, item C[C@@H](Nc1nc(-c2c[nH]c3ncc(Cl)cc23)ncc1F)c1ccc([N+](=O)[O-])cc1
[out] 500 to 5000 nM

[in] For the compound shown here, Cc1c[nH]c2nccc(Oc3ccc(CC(N)C(=O)N4CCc5ccncc5C4)cc3F)c12 (stereo not drawn) , give the reported Ki.
[out] < 3 nM

[in] For CS(=O)(=O)c1ccc(CC(=O)N(c2nc(-c3c[nH]c4ncccc34)cs2)C2CC2)cc1 , what is its reported Ki?
[out] < 500 nM

[in] What value of Ki has been reported for the following compound? O=C(NC(Cc1ccc(Oc2ccnc3[nH]ccc23)cc1)C(=O)Nc1ccccc1)C1CCNC1 (stereo not drawn)
[out] 3 to 30 nM

[in] For the compound COc1cccc(CC(=O)N(c2nc(-c3c[nH]c4ncccc34)cs2)C2CC2)c1 , what Ki is on record?
[out] < 500 nM

[in] So what does the record say about Ki for c1cc(-c2c[nH]c3nccc(Oc4ccc5c(c4)CNCC5)c23)cc(NCc2nccs2)n1 ?
[out] < 3 nM

[in] I have this compound here, O=C(Cc1ccccc1)Nc1nc(-c2ccnc(Cl)c2)cs1 , and I need its recorded Ki.
[out] 100 to 1000 nM

[in] Which Ki reading was recorded for the compound COC(=O)c1cc(F)c(-c2c[nH]c3ncc(Cl)cc23)nc1N[C@@H](C)c1ccc(F)cc1 ?
[out] 500 to 5000 nM

[in] Query: Ki; subject: Cc1c[nH]c2nccc(Oc3cccc(C(N)CC(=O)NCCc4ccncc4)c3)c12 (stereo not drawn)
[out] 5 to 50 nM

[in] Which Ki is reported for this compound? NC(C(=O)Nc1ccccc1)c1ccc(Oc2ccnc3[nH]ccc23)cc1 (stereo not drawn)
[out] > 30 nM

[in] Param item = C/C=C/C(=O)Nc1cnc2[nH]cc(-c3cccc(N4C[C@@H](C)N(C(C)=O)[C@@H](C)C4)n3)c2c1 ; retrieve measured Ki.
[out] 500 to 5000 nM

[in] Which Ki value is on record for C[C@H](Nc1nc(-c2c[nH]c3ncc(Cl)cc23)ncc1F)C(=O)NCCN(C)C(=O)OC(C)(C)C ?
[out] 500 to 5000 nM

[in] Name the recorded Ki for CN1CCN(CCOc2ccc(CC(=O)Nc3cc(-c4ccnc(Cl)c4)cs3)c(Cl)c2)CC1 .
[out] < 100 nM

[in] What Ki value was documented for this compound, CS(=O)(=O)Nc1cccc(CC(=O)Nc2nc(-c3c[nH]c4ncc(Cl)cc34)cs2)c1 ?
[out] < 500 nM

[in] Reported Ki, compound NCc1ccc(Oc2ccnc3[nH]cc(-c4cnn(Cc5ccncc5)c4)c23)c(F)c1 : ____
[out] 3 to 30 nM

[in] I am curious: what Ki value has been reported for Cc1ccc(CNc2cc(-c3c[nH]c4nccc(Oc5ccc6c(c5)CNCC6)c34)ccn2)nc1 ?
[out] 3 to 30 nM
